Reported growth inhibition is given for each of the following molecules.
- Test details: NCI Yeast Anticancer Drug Screen. Data for the mlh1 rad18 strain (AID 175)
- Reported conditions: S. cerevisiae mlh1 rad18 strain growth inhibition; at 50.0 µM; hits give high values
Compounds without any hit were thinned out: in the full panel of roughly 79,000, 15% have a hit. Where a SMILES comes first, the peptide text is derived from it. [ ]: non-standard residue; d: D form. The star is where a group is joined. Ac5c = NC1(C(=O)O)CCCC1; Cbz = O=C(OCc1ccccc1)*; Boc = CC(C)(C)OC(=O)*; tBu = CC(C)(C)*
# number only, unit % dropped from output

Past entries and their recorded results:
{"Molecule": "COC(=O)C1(NC(=O)C(Cc2ccccc2)NC(=O)C(NC(=O)C(CCCCNC(=O)OC(C)(C)C)NC(=O)C(Cc2c[nH]c3ccccc23)NC(=O)C(Cc2ccccc2)NC(=O)OCc2ccccc2)C(C)OC(C)(C)C)CCCC1 (stereo not drawn) (Cbz-FWK(Boc)T(tBu)F[Ac5c]-OMe; configuration not given here)", "growth inhibition (%)": -12.7}
{"Molecule": "C[N+](C)(C)CCCCCC[N+](C)(C)C", "growth inhibition (%)": -30.2}
{"Molecule": "CCCCN(CCCC)CC(O)c1c2cccc(Cl)c2cc2c(Cl)cccc12 (stereo not drawn)", "growth inhibition (%)": 99.1}
{"Molecule": "CCC(C#N)N(Cc1cccc(CN(C(C)=O)C(C#N)CC)c1)C(C)=O (stereo not drawn)", "growth inhibition (%)": -43.9}

Ask | Retrieve growth inhibition measured for Cc1nc(-c2ccccc2)cc2c1c(=O)oc1ccccc12 and print it.
Reply | -8.55

Ask | Retrieve growth inhibition measured for COc1ccc(OC)c(NC(=O)c2ccccc2Cl)c1 and print it.
Reply | -16.8

Ask | Retrieve growth inhibition measured for O=c1[nH]c2cc([N+](=O)[O-])ccc2nc1/C(=N\Nc1ccccc1)C(O)c1ccc2c(c1)OCO2 (stereo not drawn) and print it.
Reply | 41.1

Ask | Retrieve growth inhibition measured for CC1(C)C(=O)c2cc3ccc4ccccc4c3cc2C(C)(C)C1(C)C and print it.
Reply | -7

* * *

- Test details: NCI Yeast Anticancer Drug Screen. Data for the mlh1 rad18 strain (AID 175)
- Reported conditions: S. cerevisiae mlh1 rad18 strain growth inhibition; at 50.0 µM; hits give high values
- Description: Growth inhibition of yeast strains with defined genetic alterations is measured as a screen for potential anti-cancer activity. Selected strains with alterations in DNA damage repair or cell cycle control were exposed to compounds and growth inhibition was measured relative to vehicle treated controls. The strain used in this assay is mlh1 rad18
Compounds without any hit were thinned out: in the full panel of roughly 79,000, 15% have a hit.
Readout type: growth inhibition (%)
# number only, unit % dropped from output

{"Molecule": "COc1ccc2c(NCCCCCCNc3c4ccccc4nc4cc(OC)ccc34)c3ccccc3nc2c1", "growth inhibition [%]": 89.7}
{"Molecule": "Cn1c(=O)c2ncn(CC3CCCCC3)c2n(C)c1=O", "growth inhibition [%]": -4.95}
{"Molecule": "CCC(C)(O)C(=O)O (stereo unspecified)", "growth inhibition [%]": -15.2}
{"Molecule": "CNc1ncnc2[nH]ncc12", "growth inhibition [%]": 1.35}
{"Molecule": "O=S(=O)(CCc1ccccc1)c1nc2ccccc2s1", "growth inhibition [%]": -11.5}
{"Molecule": "COc1cccc(NC(=O)c2cccc(C(=O)Nc3cccc(OC)c3)c2)c1", "growth inhibition [%]": 35}

Ask | Retrieve growth inhibition measured for CC(=N\NS(=O)(=O)c1ccc(C)cc1)/C(C)=N/NS(=O)(=O)c1ccc(C)cc1 and print it.
Reply | -8.3

Ask | Retrieve growth inhibition measured for COc1ccccc1-n1c(O)c(N=Nc2ccc(Cl)cc2)c(=O)n(-c2ccc(I)cc2)c1=S and print it.
Reply | 27.1

Ask | Retrieve growth inhibition measured for Cc1cccc(C(C)(C)C)c1NC(=O)C(=O)C(C(=O)/C=C\c1ccccc1)C1OC(=O)c2ccccc21 (stereo unspecified) and print it.
Reply | 6.1

Ask | Retrieve growth inhibition measured for Brc1cccc2ccccc12 and print it.
Reply | 6.85

Ask | Retrieve growth inhibition measured for Cc1ccc(SC(=O)N2C(=S)NC(=NC3CCCCC3)C23CCCCC3)cc1 and print it.
Reply | -24.5
